The measured values listed here are drawn from PubChem BioAssay (NCI).

Tested on: ACHN renal
Run description: NCI tumour cell line growth inhibition, 48 h; in the data active = GI50 below about 0.43 µM; inactive = the rest
Please reply with one of these outcomes: class 1 for active, class 0 for inactive

Lookup: // outcome(item) with item = Clc1ccc(COC(Cn2ccnc2)c2ccc(Cl)cc2Cl)c(Cl)c1 (stereo not drawn)
Found: class 0

Lookup: Kindly provide the recorded test outcome for the following compound: "CCN(CC)c1ccc(/C=N/NC(=O)c2ccccc2Nc2ccnc(C(F)(F)F)c2)c(O)c1"
Found: class 1

Lookup: Per the records of this test, what outcome belongs to "CCCCCCCCCCCCC(NC(C)=O)(C(=O)OCC)C(=O)OCC" ?
Found: class 0

Lookup: Returns: the outcome recorded for "COc1c(Cl)[c]([Hg][O]C(C)=O)c(NCC(C)=O)c(OC)[c]1[Hg][O]C(C)=O" in this assay.
Found: class 0

Lookup: Hi, do you know how "C[C@@]1(O)CCC[C@H]1n1c(=O)c(C(F)F)cc2cnc(NC3CCN(S(C)(=O)=O)CC3)nc21" came out in this test?
Found: class 0

---

System: SF-539 CNS
Run description: NCI tumour cell line growth inhibition, 48 h; in the data active means GI50 below about 0.43 µM; inactive means the rest
Outcome field: choose from active, inactive

compound="CCCC(=O)Nc1c(I)cc(I)c(CC(CC)C(=O)O)c1I (stereo not drawn)" category=inactive

Lookup: Tell me the assay call for "CC(C)=CCc1c(O)c(C(=O)CC(C)C)c(O)c2c(-c3ccccc3)cc(=O)oc12" please.
Found: inactive

Lookup: Tell me the assay call for CSC1SCC2C(=O)N(C)C(C(C)C)C(=O)OCC(NC(=O)c3cnc4ccccc4n3)C(=O)NC(C)C(=O)N(C)C1C(=O)N(C)C(C(C)C)C(=O)OCC(NC(=O)c1cnc3ccccc3n1)C(=O)NC(C)C(=O)N2C (stereo not drawn) please.
Found: active

Lookup: What did this assay record as the result for "COc1cccc(NC(=O)c2ccc(NC3=C(Cl)C(=O)N(Cc4ccccc4)C3=O)cc2)c1" ?
Found: inactive

Lookup: So what was the verdict on "COc1ccc(C(=O)c2cc(C)c(OC)c(C)c2)c(OC)c1N(C(=O)CCl)C(=O)CCl" in this test?
Found: active

Lookup: Dear colleague, could you share the recorded outcome for "C=C1C(=O)O[C@H]2[C@H]1CC/C(Cn1cc(-c3ccsc3)nn1)=C\CC[C@@]1(C)O[C@@H]21" when you have a moment?
Found: inactive

Lookup: Please state the recorded outcome for this compound: "O=C(Nc1ccc(-n2ccc3c(NC(=O)c4ccccc4)nccc32)cc1)c1ccc(N2CCOCC2)c(C(F)(F)F)c1"
Found: active

Lookup: What did this assay record as the result for COc1c(N2CCN(CN3C(=O)C(=O)c4ccccc43)C(C)C2)c(F)cc2c(=O)c(C(=O)O)cn(C3CC3)c12 (stereo not drawn) ?
Found: inactive

---

Tested on: HCC-2998 colon
Run description: NCI tumour cell line growth inhibition, 48 h
The entries below come with measured GI50 values attached.

molecule="Clc1ccc(COC(Cn2ccnc2)c2ccc(Cl)cc2Cl)c(Cl)c1 (stereo not drawn)" value_observed="3.78 µM"
molecule="CCCC(=O)Nc1c(I)cc(I)c(CC(CC)C(=O)O)c1I (stereo not drawn)" value_observed="> 100 µM"
molecule="CSC1SCC2C(=O)N(C)C(C(C)C)C(=O)OCC(NC(=O)c3cnc4ccccc4n3)C(=O)NC(C)C(=O)N(C)C1C(=O)N(C)C(C(C)C)C(=O)OCC(NC(=O)c1cnc3ccccc3n1)C(=O)NC(C)C(=O)N2C (stereo not drawn)" value_observed="< 0.001 µM"
molecule=COc1ccc(-c2cc(-c3ccc(Cl)cc3)nc(SCCCCCCC(=O)NO)n2)cc1 value_observed="2.01 µM"
molecule=N.N.NCCCCCN.O=C([O-])CC(=O)[O-].O=C([O-])CC(=O)[O-].[Pt+4].[Pt+4] value_observed="> 100 µM"

Record C=C(C)[C@@H]1CC[C@]2(CN)CC[C@]3(C)[C@H](CC[C@@H]4[C@@]5(C)CCC(N)[C@@](C)(CO)[C@@H]5CC[C@]43C)[C@@H]12 (stereo partly drawn) , field GI50: 1.77 µM

Measured GI50, "COCC(=O)NC/C=C/c1ccc2ncnc(Nc3ccc(Oc4ccc(C)nc4)c(C)c3)c2c1" : 20.1 µM

Memo: "O=C(Nc1ccc(N2CCNCC2)cn1)c1[nH]ncc1Nc1ncnc2sccc12" , reported GI50: 12.7 µM
